assay: physchem
Description: Kinetic solubility of the compound
REPORTED METRIC: solubility kinetic (µM)
Give the quantity in µM, number only.

Consider the following illustrative entries.
[
  {
    "STRUCTURE AS SMILES": "Nc1nc(-n2cc(C(=O)O)c(=O)c3cc(F)c([C@H]4C[C@@H](O)C4)c(Cl)c32)c(F)cc1F",
    "UNIT ABBREV": "µM",
    "solubility kinetic": 44.8
  },
  {
    "STRUCTURE AS SMILES": "Nc1nc(-n2cc(C(=O)O)c(=O)c3cc(F)c(N4CC(N)C4)c(Cl)c32)c(F)cc1F",
    "UNIT ABBREV": "µM",
    "solubility kinetic": 3.6
  },
  {
    "STRUCTURE AS SMILES": "Nc1nc(-n2cc(C(=O)O)c(=O)c3cc(F)c(N4CC(O)C4)c(Cl)c32)c(F)cc1F",
    "UNIT ABBREV": "µM",
    "solubility kinetic": 58.1
  }
]

Kindly review the next compound as well.
Given the entry Nc1nc(-n2cc(C(=O)O)c(=O)c3cc(F)c([C@H]4C[C@H](O)C4)c(Cl)c32)c(F)cc1F , report its measured solubility kinetic.
59.3

----------
This document collects IC50 values reported for Cytochrome P450 3A4 (Homo sapiens, UniProt P08684).
Give the quantity in µM, number only.

[
  {
    "STRUCTURE AS SMILES": "Nc1nc(-n2cc(C(=O)O)c(=O)c3cc(F)c(N4CC(N)C4)c(Cl)c32)c(F)cc1F",
    "UNIT ABBREV": "µM",
    "IC50": 13.6
  }
]

Kindly review the next compound as well.
Given the entry Nc1nc(-n2cc(C(=O)O)c(=O)c3cc(F)c([C@H]4C[C@@H](O)C4)c(Cl)c32)c(F)cc1F , report its measured IC50.
24.8

----------
test: Oral bioavailability in human at 450 mg measured every 12 hrs; type: ADME, organism-based; conditions: in vivo
REPORTED METRIC: bioavailability

Given the entry Nc1nc(-n2cc(C(=O)O)c(=O)c3cc(F)c(N4CC(O)C4)c(Cl)c32)c(F)cc1F , report its measured bioavailability.
59%

----------
system: Klebsiella pneumoniae; test: Antibacterial activity against Klebsiella pneumoniae ATCC 700603 assessed as reduction in bacterial growth by CLSI protocol based microdilution method; type: functional
The molecules listed here are annotated with their MIC.
Please give the number followed by its unit.

Given the entry Nc1nc(-n2cc(C(=O)O)c(=O)c3cc(F)c(N4CC(O)C4)c(Cl)c32)c(F)cc1F [DELAFLOXACIN] , report its measured MIC.
0.25 µg/mL

Given the entry Nc1nc(-n2cc(C(=O)O)c(=O)c3cc(F)c([C@H]4C[C@H](O)C4)c(Cl)c32)c(F)cc1F , report its measured MIC.
8 µg/mL

Given the entry Nc1nc(-n2cc(C(=O)O)c(=O)c3cc(F)c([C@H]4C[C@@H](O)C4)c(Cl)c32)c(F)cc1F , report its measured MIC.
4 µg/mL

Given the entry Nc1nc(-n2cc(C(=O)O)c(=O)c3cc(F)c(N4CC(N)C4)c(Cl)c32)c(F)cc1F , report its measured MIC.
0.25 µg/mL

----------
test: in vitro; settings: human, plasma
Description: Protein binding in human plasma assessed as free fraction
REPORTED METRIC: fraction unbound
Please reply with the value in numeric form only.

Consider the following illustrative entries.
[
  {
    "STRUCTURE AS SMILES": "Nc1nc(-n2cc(C(=O)O)c(=O)c3cc(F)c([C@H]4C[C@@H](O)C4)c(Cl)c32)c(F)cc1F",
    "fraction unbound": 0.124
  },
  {
    "STRUCTURE AS SMILES": "Nc1nc(-n2cc(C(=O)O)c(=O)c3cc(F)c([C@H]4C[C@H](O)C4)c(Cl)c32)c(F)cc1F",
    "fraction unbound": 0.105
  },
  {
    "STRUCTURE AS SMILES": "Nc1nc(-n2cc(C(=O)O)c(=O)c3cc(F)c(N4CC(O)C4)c(Cl)c32)c(F)cc1F",
    "fraction unbound": 0.149
  }
]

Kindly review the next molecule as well.
Given the entry Nc1nc(-n2cc(C(=O)O)c(=O)c3cc(F)c(N4CC(N)C4)c(Cl)c32)c(F)cc1F , report its measured fraction unbound.
0.297
